Items are presented alongside their recorded PDI.
test_protocol: LNP size and polydispersity index by dynamic light scattering (Zetasizer Nano ZS)
Format: physicochemical
measurement_parameters: LNP with mRNA payload formulated with the lipid; active lipid/Cholesterol/DOPC/DMG-PEG 16.8/4.0/2.0/1.0; Lipids:mRNA 25:1; PBS pH 7.4, 25° C.

{"compound": "CC(C)CCCCCCCCSSCCOC(=O)CCN(CCCN(C)CCCN(CCC(=O)OCCSSCCCCCCCCC(C)C)CCC(=O)OCCSSCCCCCCCCC(C)C)CCC(=O)OCCSSCCCCCCCCC(C)C [Lipid L0814]", "PDI": 0.093}
{"compound": "CC(C)CCCCCCCCSSCCOC(=O)CCN(CCCN(C)CCCN(CCC(=O)OCCSSCCCCCCCCC(C)C)CCC(=O)OCCSSCCCCCCCCC(C)C)CCC(=O)OCCSSCCCCCCCCC(C)C [Lipid L0813]", "PDI": 0.107}
{"compound": "CCCCCCC(CCCC)COC(=O)NCCNC(=O)CCN(CCCN(C)CCCN(CCC(=O)OCCNC(=O)OCC(CCCC)CCCCCC)CCC(=O)OCCNC(=O)OCC(CCCC)CCCCCC)CCC(=O)NCCNC(=O)OCC(CCCC)CCCCCC (centres unmarked) [Lipid L0744]", "PDI": 0.118}
{"compound": "CCCCCCC(CCCC)COC(=O)OCCOC(=O)CCN(CCCN(CCO)CCCN(CCC(=O)OCCOC(=O)OCC(CCCC)CCCCCC)CCC(=O)OCCOC(=O)OCC(CCCC)CCCCCC)CCC(=O)OCCOC(=O)OCC(CCCC)CCCCCC (centres unmarked) [Lipid L0665]", "PDI": 0.16}
{"compound": "CCCCCCC(CCCC)COC(=O)OCCOC(=O)CCN(CCCN(CCCO)CCCN(CCC(=O)OCCOC(=O)OCC(CCCC)CCCCCC)CCC(=O)OCCOC(=O)OCC(CCCC)CCCCCC)CCC(=O)OCCOC(=O)OCC(CCCC)CCCCCC (centres unmarked) [Lipid L0666]", "PDI": 0.26}

* * *

test_protocol: LNP size and polydispersity index by dynamic light scattering (Zetasizer Nano ZS)
Assay type: physicochemical
measurement_parameters: LNP with mRNA payload formulated with the lipid; active lipid/Cholesterol/DOPC/DMG-PEG 16.8/4.0/2.0/1.0; Lipids:mRNA 25:1; PBS pH 7.4, 25° C.
Items are presented alongside their recorded PDI.

{"molecule": "CCC(C)CCCCCOC(=O)CCN(CCCN(C)CCCN(CCC(=O)OCCCCCC(C)CC)CCC(=O)OCCCCCC(C)CC)CCC(=O)OCCCCCC(C)CC (centres unmarked) [Lipid L0630]", "PDI": 0.102}
{"molecule": "CCC1CC1CCCCSSCCOC(=O)CCN(CCCN(C)CCCN(CCC(=O)OCCSSCCCCC1CC1CC)CCC(=O)OCCSSCCCCC1CC1CC)CCC(=O)OCCSSCCCCC1CC1CC (centres unmarked) [Lipid L0586]", "PDI": 0.079}
{"molecule": "CCCCCCC(CCCC)CNC(=O)SCCOC(=O)CCN(CCCN(C)CCCN(CCC(=O)OCCSC(=O)NCC(CCCC)CCCCCC)CCC(=O)OCCSC(=O)NCC(CCCC)CCCCCC)CCC(=O)OCCSC(=O)NCC(CCCC)CCCCCC (centres unmarked) [Lipid L0550]", "PDI": 0.14}
{"molecule": "CCCCCCC(CCCC)COC(=O)OCCOC(=O)CCN(CCCN(CCCNC(=O)OC(C)(C)C)CCCN(CCC(=O)OCCOC(=O)OCC(CCCC)CCCCCC)CCC(=O)OCCOC(=O)OCC(CCCC)CCCCCC)CCC(=O)OCCOC(=O)OCC(CCCC)CCCCCC (centres unmarked) [Lipid L0668]", "PDI": 0.11}
{"molecule": "CCCCCCC(CCCC)COC(=O)CCOC(=O)CCN(CCC(=O)OCCC(=O)OCC(CCCC)CCCCCC)CCN(C)CCN(CCC(=O)OCCC(=O)OCC(CCCC)CCCCCC)CCC(=O)OCCC(=O)OCC(CCCC)CCCCCC (centres unmarked) [Lipid L0855]", "PDI": 0.125}

* * *

test_protocol: LNP size and polydispersity index by dynamic light scattering (Zetasizer Nano ZS)
Type: physicochemical
measurement_parameters: LNP with mRNA payload formulated with the lipid; active lipid/Cholesterol/DOPC/DMG-PEG 16.8/4.0/2.0/1.0; Lipids:mRNA 25:1; PBS pH 7.4, 25° C.
hey, just use Fulfilled if measured PDI is less than 0.1, otherwise Not fulfilled

{"molecule": "CCCCCCC(CCCC)COC(=O)OCCOC(=O)CCN(CCCN(CCCCO)CCCN(CCC(=O)OCCOC(=O)OCC(CCCC)CCCCCC)CCC(=O)OCCOC(=O)OCC(CCCC)CCCCCC)CCC(=O)OCCOC(=O)OCC(CCCC)CCCCCC (stereo not shown)", "discrete_label": "Not fulfilled"}
{"molecule": "CCCCCCC(CCCC)CNC(=O)NCCNC(=O)CCN(CCCN(C)CCCN(CCC(=O)NCCNC(=O)NCC(CCCC)CCCCCC)CCC(=O)NCCNC(=O)NCC(CCCC)CCCCCC)CCC(=O)NCCNC(=O)NCC(CCCC)CCCCCC (stereo not shown)", "discrete_label": "Not fulfilled"}
{"molecule": "CC(C)CCCCCCSSCCOC(=O)CCN(CCCn1ccnc1)CCC(=O)OCCSSCCCCCCC(C)C", "discrete_label": "Not fulfilled"}
{"molecule": "CCCCCCC(CCCC)COC(=O)OCCOC(=O)CCN(CCCN(C)CCCN(CCC(=O)OCCOC(=O)OCC(CCCC)CCCCCC)CCC(=O)OCCOC(=O)OCC(CCCC)CCCCCC)CCC(=O)OCCOC(=O)OCC(CCCC)CCCCCC (stereo not shown)", "discrete_label": "Fulfilled"}
{"molecule": "CCCC/C=C\\CCOC(=O)CCN(CCCN(C)CCCN(CCC(=O)OCC/C=C\\CCCC)CCC(=O)OCC/C=C\\CCCC)CCC(=O)OCC/C=C\\CCCC", "discrete_label": "Fulfilled"}
{"molecule": "CCCCCCCCC(CCC)OC(=O)OCCOC(=O)CCN(CCC(=O)OCCOC(=O)OC(CCC)CCCCCCCC)CCN(C)CCN(CCC(=O)OCCOC(=O)OC(CCC)CCCCCCCC)CCC(=O)OCCOC(=O)OC(CCC)CCCCCCCC (stereo not shown)", "discrete_label": "Not fulfilled"}
{"molecule": "CCC(C)CCCCCOC(=O)CCN(CCC(=O)OCCCCCC(C)CC)CCN(C)CCN(CCC(=O)OCCCCCC(C)CC)CCC(=O)OCCCCCC(C)CC (stereo not shown)", "discrete_label": "Not fulfilled"}

* * *

test_protocol: LNP size and polydispersity index by dynamic light scattering (Zetasizer Nano ZS)
Type: physicochemical
measurement_parameters: LNP with mRNA payload formulated with the lipid; active lipid/Cholesterol/DOPC/DMG-PEG 16.8/4.0/2.0/1.0; Lipids:mRNA 25:1; PBS pH 7.4, 25° C.

{"compound": "CC(C)CCCCCCSSCCOC(=O)CCN(CCCN(C)CCCN(CCC(=O)OCCSSCCCCCCC(C)C)CCC(=O)OCCSSCCCCCCC(C)C)CCC(=O)OCCSSCCCCCCC(C)C [Lipid L0642]", "PDI": 0.124}
{"compound": "CC/C=C\\CCCC[Se]CCOC(=O)CCN(CCCN(C)CCCN(CCC(=O)OCC[Se]CCCC/C=C\\CC)CCC(=O)OCC[Se]CCCC/C=C\\CC)CCC(=O)OCC[Se]CCCC/C=C\\CC [Lipid L0825]", "PDI": 0.099}
{"compound": "CCCCCCC(CCCC)COC(=O)OCCOC(=O)CCN(CCCN(CCCN(CCC(=O)OCCOC(=O)OCC(CCCC)CCCCCC)CCC(=O)OCCOC(=O)OCC(CCCC)CCCCCC)CCCN1CCN(C)CC1)CCC(=O)OCCOC(=O)OCC(CCCC)CCCCCC (centres unmarked) [Lipid L0674]", "PDI": 0.22}
{"compound": "CC/C=C\\CCCCOC(=O)CCN(CCCN(C)CCCN(CCC(=O)OCCCC/C=C\\CC)CCC(=O)OCCOC(=O)OCC(CCCC)CCCCCC)CCC(=O)OCCCC/C=C\\CC (centres unmarked) [Lipid L0829]", "PDI": 0.13}
{"compound": "CCCCCCCCC(CCC)OC(=O)OCCOC(=O)CCN(CCCN(C)CCCN(CCC(=O)OCCOC(=O)OC(CCC)CCCCCCCC)CCC(=O)OCCOC(=O)OC(CCC)CCCCCCCC)CCC(=O)OCCOC(=O)OC(CCC)CCCCCCCC (centres unmarked) [Lipid L0637]", "PDI": 0.34}

* * *

test_protocol: Encapsulation efficiency and mRNA quantity by Ribogreen fluorescence plate assay
Type: physicochemical
measurement_parameters: LNP with mRNA payload formulated with the lipid; 16.8/4.0/2.0/1.0; Lipids:mRNA 25:1
Items are presented alongside their recorded [mRNA] Ug/ml.

{"molecule": "CCC(C)CCCCCOC(=O)CCN(CCCN(C)CCCN(CCC(=O)OCCCCCC(C)CC)CCC(=O)OCCCCCC(C)CC)CCC(=O)OCCCCCC(C)CC (stereo not drawn) [Lipid L0630]", "[mRNA] Ug/ml (Ug/ml)": 74.99}
{"molecule": "CCCCCCC(CCCC)COC(=O)OCCOC(=O)CCN(CCCN(CCO)CCCN(CCC(=O)OCCOC(=O)OCC(CCCC)CCCCCC)CCC(=O)OCCOC(=O)OCC(CCCC)CCCCCC)CCC(=O)OCCOC(=O)OCC(CCCC)CCCCCC (stereo not drawn) [Lipid L0665]", "[mRNA] Ug/ml (Ug/ml)": 65.8}
{"molecule": "CCCCCCCCCC(CC)OC(=O)OCCOC(=O)CCN(CCCN(C)CCCN(CCC(=O)OCCOC(=O)OC(CC)CCCCCCCCC)CCC(=O)OCCOC(=O)OC(CC)CCCCCCCCC)CCC(=O)OCCOC(=O)OC(CC)CCCCCCCCC (stereo not drawn) [Lipid L0659]", "[mRNA] Ug/ml (Ug/ml)": 69.6}

The values you see were collected from patent US20260285801A1.
